Molecular target: CXCR4 (Homo sapiens, UniProt P61073)
Construct: CCRF-CEM cells, a human T-cell ALL line that endogenously expresses CXCR4; endogenous in cells; host or cells: CCRF-CEM (human T-cell acute lymphoblastic leukemia line)
Sequence (P61073 whole entry): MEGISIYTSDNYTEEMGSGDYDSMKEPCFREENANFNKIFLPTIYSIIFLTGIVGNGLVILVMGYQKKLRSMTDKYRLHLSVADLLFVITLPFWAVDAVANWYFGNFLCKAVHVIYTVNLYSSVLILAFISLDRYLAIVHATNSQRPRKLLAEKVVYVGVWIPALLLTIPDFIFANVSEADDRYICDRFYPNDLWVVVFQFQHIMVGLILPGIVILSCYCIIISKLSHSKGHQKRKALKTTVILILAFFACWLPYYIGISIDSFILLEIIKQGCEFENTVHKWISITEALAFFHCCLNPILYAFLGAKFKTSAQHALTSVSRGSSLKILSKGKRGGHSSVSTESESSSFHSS
Test: Calcium flux assay, agonist mode, Flexstation (CCRF-CEM cells)
Assay type: cell-based
Conditions: CCRF-CEM, percent of maximum response compared with SDF-1α, read-out: % Intrinsic Activity
Description: Calcium Flux Assay is one of the most popular cell-based GPCR functional assays. It most often uses calcium sensing fluorescent dyes such as fura2 AM, fluo-4 and Calcium-4 to measure changes in intracellular calcium concentration. It is used mainly to detect GPCR signaling via Gαq subunit. […] Intracellular calcium binding to the fluorescent dyes can be detected by instruments that quantify fluorescent intensities, such as FLIPR Tetra, Flexstation (MDS) and FDSS (Hamamatsu). […]
Where a SMILES comes first, the peptide text is derived from it. [ ]: non-standard residue; d: D form. The star is where a group is joined. Palmitoyl = CCCCCCCCCCCCCCCC(=O)*; Cit = NC(=O)NCCC[C@H](N)C(=O)O; Nle = CCCC[C@H](N)C(=O)O
observed-property: Emax (%)
Report as a plain number; the unit % is understood.

For orientation, consider the following solved cases.
- compound: "CCCCCCCCCCCCCCCC(=O)NCC(=O)NCC(=O)N[C@@H](Cc1ccc(O)cc1)C(=O)N[C@@H](CCC(N)=O)C(=O)N[C@@H](CCCCN)C(=O)N[C@@H](CCCCN)C(=O)N[C@@H](CC(C)C)C(=O)N[C@@H](CCCNC(=N)N)C(=O)N1CCC[C@@H]1C(=O)N[C@@H](C)C(=O)N[C@H](C(=O)N[C@@H](CC(=O)O)C(=O)N[C@@H](CCCCN)C(=O)N[C@@H](Cc1ccccc1)C(=O)N[C@@H](CCCNC(=N)N)C(=O)N[C@@H](CC(C)C)C(N)=O)[C@@H](C)O [Compound 29] (Palmitoyl-GGYQKKLR[dP]ATDKFRL-NH2; C-terminus assumed)"
  recorded-measurement: 88.9
- compound: "CCCCCCCCCCCCCCCC(=O)NCC(=O)NCC(=O)N[C@@H](Cc1ccc(O)cc1)C(=O)N[C@@H](CCC(N)=O)C(=O)N[C@@H](CCCCN)C(=O)N[C@@H](CCCCN)C(=O)N[C@@H](CC(C)C)C(=O)N[C@@H](CCCNC(=N)N)C(=O)N1CCC[C@@H]1C(=O)N[C@@H](C)C(=O)N[C@H](C(=O)N[C@@H](CC(=O)O)C(=O)N[C@@H](CCCCN)C(=O)N[C@@H](Cc1ccc(O)cc1)C(=O)N[C@@H](CCCNC(=N)N)C(=O)N[C@@H](CC(C)C)C(N)=O)[C@@H](C)O [Compound 27] (Palmitoyl-GGYQKKLR[dP]ATDKYRL-NH2; C-terminus assumed)"
  recorded-measurement: 111
- compound: "CCCCCCCCCCCCCCCC(=O)N[C@@H](CCSC)C(=O)NCC(=O)N[C@@H](Cc1ccc(O)cc1)C(=O)N[C@@H](CCC(N)=O)C(=O)N[C@@H](CCCCN)C(=O)N[C@@H](CCCCN)C(=O)N[C@@H](CC(C)C)C(=O)N[C@@H](CCCNC(=N)N)C(=O)N[C@@H](CO)C(=O)NCC(=O)N[C@H](C(=O)N[C@@H](CC(=O)O)C(=O)N[C@@H](CCCCN)C(=O)N[C@@H](Cc1ccc(O)cc1)C(=O)N[C@@H](CCCNC(=N)N)C(=O)N[C@@H](CC(C)C)C(N)=O)[C@@H](C)O [Compound 19] (Palmitoyl-MGYQKKLRSGTDKYRL-NH2; C-terminus assumed)"
  recorded-measurement: 101
- compound: "CCCCCCCCCCCCCCCC(=O)NCC(=O)NCC(=O)N[C@@H](Cc1ccc(O)cc1)C(=O)N[C@@H](CCC(N)=O)C(=O)N[C@@H](CCCCN)C(=O)N[C@@H](CCCCN)C(=O)N[C@H](CC(C)C)C(=O)N[C@@H](CCCNC(=N)N)C(=O)N[C@@H](CO)C(=O)N[C@@H](C)C(=O)N[C@H](C(=O)N[C@@H](CC(=O)O)C(=O)N[C@@H](CCCCN)C(=O)N[C@@H](Cc1ccc(O)cc1)C(=O)N[C@@H](CCCNC(=N)N)C(=O)N[C@@H](CC(C)C)C(N)=O)[C@@H](C)O [Compound 39] (Palmitoyl-GGYQKK[dL]RSATDKYRL-NH2; C-terminus assumed)"
  recorded-measurement: 104
- compound: "CCCCCCCCCCCCCCCC(=O)N[C@@H](COC)C(=O)NCC(=O)N[C@@H](Cc1ccc(O)cc1)C(=O)N[C@@H](CCC(N)=O)C(=O)N[C@@H](CCCCN)C(=O)N[C@@H](CCCCN)C(=O)N[C@@H](CC(C)C)C(=O)N[C@@H](CCCNC(=N)N)C(=O)N[C@@H](CO)C(=O)N[C@@H](COC)C(=O)N[C@H](C(=O)N[C@@H](CC(=O)O)C(=O)N[C@@H](CCCCN)C(=O)N[C@@H](Cc1ccc(O)cc1)C(=O)N[C@@H](CCCNC(=N)N)C(=O)N[C@@H](CC(C)C)C(N)=O)[C@@H](C)O [Compound 23] (Palmitoyl-S(Me)GYQKKLRSS(Me)TDKYRL-NH2)"
  recorded-measurement: 87.2
- compound: "CCCCCCCCCCCCCCCC(=O)NCC(=O)NCC(=O)N[C@@H](Cc1ccc(O)cc1)C(=O)N[C@@H](CCC(N)=O)C(=O)N[C@@H](CCCCN)C(=O)N[C@@H](CCCCN)C(=O)N1CCC[C@@H]1C(=O)N[C@@H](CCCNC(=N)N)C(=O)N1CCC[C@@H]1C(=O)N[C@@H](C)C(=O)N[C@H](C(=O)N[C@@H](CC(=O)O)C(=O)N[C@@H](CCCCN)C(=O)N[C@@H](Cc1ccc(O)cc1)C(=O)N[C@@H](CCCNC(=N)N)C(=O)N[C@@H](CC(C)C)C(N)=O)[C@@H](C)O [Compound 28] (Palmitoyl-GGYQKK[dP]R[dP]ATDKYRL-NH2; C-terminus assumed)"
  recorded-measurement: 107

Q) Any idea what Emax was measured for CCCCCCCCCCCCCCCC(=O)NCC(=O)NCC(=O)N[C@@H](Cc1ccc(O)cc1)C(=O)N[C@@H](CCC(N)=O)C(=O)N[C@@H](CCCCN)C(=O)N[C@@H](CCCCN)C(=O)N[C@@H](CC(C)C)C(=O)N[C@@H](CCCNC(=N)N)C(=O)N[C@@H](CO)C(=O)N[C@@H](C)C(=O)N[C@H](C(=O)N[C@@H](CC(=O)O)C(=O)N[C@@H](CCCCN)C(=O)N[C@@H](Cc1ccc(O)cc1)C(=O)N[C@@H](CCCNC(=N)N)C(=O)N[C@@H](CC(C)C)C(N)=O)[C@@H](C)O [Compound 25] (Palmitoyl-GGYQKKLRSATDKYRL-NH2; C-terminus assumed) ?
A) 89.4

Q) Any idea what Emax was measured for CCCCCCCCCCCCCCCC(=O)N[C@@H](CCSC)C(=O)NCC(=O)N[C@@H](Cc1ccc(O)cc1)C(=O)N[C@@H](CCC(N)=O)C(=O)N[C@@H](CCCCN)C(=O)N[C@@H](CCCCN)C(=O)N[C@@H](CC(C)C)C(=O)N[C@@H](CCCNC(=N)N)C(=O)N[C@@H](CO)C(=O)N[C@@H](CCSC)C(=O)N[C@H](C(=O)N[C@@H](CC(=O)O)C(=O)N[C@@H](CCCCN)C(=O)N[C@@H](Cc1ccc(O)cc1)C(=O)N[C@@H](CCCNC(N)=O)C(=O)N[C@@H](CC(C)C)C(N)=O)[C@@H](C)O [Compound 14] (Palmitoyl-MGYQKKLRSMTDKY[Cit]L-NH2) ?
A) 3.61

Q) Any idea what Emax was measured for CCCCCCCCCCCCCCCC(=O)NCC(=O)N[C@@H](Cc1ccc(O)cc1)C(=O)N[C@@H](CCC(N)=O)C(=O)N[C@@H](CCCCN)C(=O)N[C@@H](CCCCN)C(=O)N[C@@H](CC(C)C)C(=O)N[C@@H](CCCNC(=N)N)C(=O)N[C@@H](CO)C(=O)N[C@@H](CCCC)C(=O)N[C@H](C(=O)N[C@@H](CC(=O)O)C(=O)N[C@@H](CCCCN)C(=O)N[C@@H](Cc1ccc(O)cc1)C(=O)N[C@@H](CCCNC(=N)N)C(=O)N[C@H](C(N)=O)[C@@H](C)CC)[C@@H](C)O [Compound 20] (Palmitoyl-GYQKKLRS[Nle]TDKYRI-NH2; C-terminus assumed) ?
A) 62.5

FYI, the data here is from patent US9155795B2.
